- protocolSummary: Toxicity to human white cells
- Format: cell-based
- assaySetup: white blood cells
recordedMetric: MNTC

Documented MNTC of COC(=O)Nc1nc2ccc(C(=O)c3cccs3)cc2[nH]1 [Nocodazole, reference compound] : 100 to 1000 nM

---

- protocolSummary: Toxicity to human white cells
- Format: cell-based
- assaySetup: white blood cells, up to about, read-out: concentration up to which completely nontoxic
recordedMetric: MNTC

Documented MNTC of COC(=O)c1cc(I)c(Oc2ccc(OC)cc2)c(I)c1 [DIME] : ~320 µM
